- Tested on: MYB
- procedure-summary: 3' UTR reporter interaction score (median-centred robust z-score of log2 firefly/Renilla activity); higher = less repression of the 3' UTR reporter
- test-conditions: HEK293T; 48 h
3' UTR reporter interaction score reference
Give a plain numeric answer without units written out.

Here's what some known entries look like.
construct_sequence=UCUAGGCUGGUACUGCUGA measured_parameter="3' UTR reporter interaction score" numeric_value=0.874
construct_sequence=AGGUUGACAUACGUUUCCC measured_parameter="3' UTR reporter interaction score" numeric_value=0.862
construct_sequence=UGUCACUCGGCUCGGCCCACUAC measured_parameter="3' UTR reporter interaction score" numeric_value=0.0813
construct_sequence=GUGGCUGCACUCACUUCCUUC measured_parameter="3' UTR reporter interaction score" numeric_value=0.056
construct_sequence=AGGGAUCGCGGGCGGGUGGCGGCCU measured_parameter="3' UTR reporter interaction score" numeric_value=0.376

Ask: Quick one: 3' UTR reporter interaction score of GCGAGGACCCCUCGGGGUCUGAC ?
Result: 0.547

Ask: Quick one: 3' UTR reporter interaction score of UUAAUGCUAAUCGUGAUAGGGG ?
Result: -1.61

Ask: Quick one: 3' UTR reporter interaction score of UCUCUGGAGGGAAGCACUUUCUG ?
Result: -1.99

----------
- Test system: BRCA2
- procedure-summary: 3' UTR reporter interaction score (median-centred robust z-score of log2 firefly/Renilla activity); higher = less repression of the 3' UTR reporter
- test-conditions: HEK293T; 48 h
3' UTR reporter interaction score reference

Here's what some known entries look like.
construct_sequence=AGGUUGACAUACGUUUCCC target_under_test=BRCA2 result=-0.754
construct_sequence=UCGUGUCUUGUGUUGCAGCCG target_under_test=BRCA2 result=-0.341
construct_sequence=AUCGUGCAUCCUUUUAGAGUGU target_under_test=BRCA2 result=-0.461
construct_sequence=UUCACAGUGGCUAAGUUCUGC target_under_test=BRCA2 result=-0.687
construct_sequence=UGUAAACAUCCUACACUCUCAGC target_under_test=BRCA2 result=0.774

We next turn to a different sequence, shown below.
Ask: # value lookup — system BRCA2, readout 3' UTR reporter interaction score, item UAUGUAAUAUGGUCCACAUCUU
Result: -0.619

----------
3' UTR reporter interaction score reference
- Tested on: ZEB2
- procedure-summary: 3' UTR reporter interaction score (median-centred robust z-score of log2 firefly/Renilla activity); higher = less repression of the 3' UTR reporter
- test-conditions: HEK293T; 48 h

construct_sequence=UGAGAACUGAAUUCCAUAGGCU result=0.486
construct_sequence=UGGACGGAGAACUGAUAAGGGU result=0.823
construct_sequence=AAAGUGCCUCCUUUUAGAGUGU result=0.00481
construct_sequence=CUGGACUUAGGGUCAGAAGGCC result=2.31
construct_sequence=UGGAAGACUAGUGAUUUUGUUG result=-0.874
construct_sequence=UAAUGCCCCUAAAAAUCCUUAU result=-2.81
construct_sequence=AUCAACAGACAUUAAUUGGGCGC result=1.91

We next turn to a different sequence, shown below.
Ask: Quick one: 3' UTR reporter interaction score of UAUACAAGGGCAAGCUCUCUGU ?
Result: -0.506

----------
- Test system: ZEB2
- procedure-summary: 3' UTR reporter interaction score (median-centred robust z-score of log2 firefly/Renilla activity); higher = less repression of the 3' UTR reporter
- test-conditions: HEK293T; 48 h
Kindly note that classification relies on 3' UTR reporter interaction score with these boundaries: low class = under -0.3, middle class = from -0.3 up to 0.4, high class = 0.4 and over

construct_sequence=GAGGUUGUCCGUGGUGAGUUCG class_assignment="middle class"
construct_sequence=UGAGAACUGAAUUCCAUGGGUU class_assignment="high class"
construct_sequence=AGUGUGGCUUUCUUAGAGC class_assignment="high class"
construct_sequence=UGAUUGUAGCCUUUUGGAGUAGA class_assignment="low class"
construct_sequence=AGACCCUGGUCUGCACUCUAU class_assignment="middle class"
construct_sequence=GAUGAGCUCAUUGUAAUAUG class_assignment="low class"
construct_sequence=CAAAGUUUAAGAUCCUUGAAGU class_assignment="low class"
construct_sequence=GAACGCCUGUUCUUGCCAGGUGG class_assignment="high class"

Ask: # classify by 3' UTR reporter interaction score band: CCUCUGGGCCCUUCCUCCAG
Result: high class

Ask: # classify by 3' UTR reporter interaction score band: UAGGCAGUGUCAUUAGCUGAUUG
Result: low class

Ask: # classify by 3' UTR reporter interaction score band: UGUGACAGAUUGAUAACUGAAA
Result: high class

Ask: # classify by 3' UTR reporter interaction score band: UAUUGCUUAAGAAUACGCGUAG
Result: middle class

Ask: # classify by 3' UTR reporter interaction score band: UACCCUGUAGAUCCGAAUUUGUG
Result: low class

----------
3' UTR reporter interaction score reference
- Tested on: MYCN
- procedure-summary: 3' UTR reporter interaction score (median-centred robust z-score of log2 firefly/Renilla activity); higher = less repression of the 3' UTR reporter
- test-conditions: HEK293T; 48 h
Give a plain numeric answer without units written out.

Here's what some known entries look like.
construct_sequence=UCUCACACAGAAAUCGCACCCGUC target_under_test=MYCN measured_parameter="3' UTR reporter interaction score" numeric_value=-1.33
construct_sequence=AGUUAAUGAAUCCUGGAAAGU target_under_test=MYCN measured_parameter="3' UTR reporter interaction score" numeric_value=0.0474
construct_sequence=GCUGCGCUUGGAUUUCGUCCCC target_under_test=MYCN measured_parameter="3' UTR reporter interaction score" numeric_value=0.248
construct_sequence=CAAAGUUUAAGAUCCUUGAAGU target_under_test=MYCN measured_parameter="3' UTR reporter interaction score" numeric_value=-0.796
construct_sequence=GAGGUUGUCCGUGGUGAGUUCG target_under_test=MYCN measured_parameter="3' UTR reporter interaction score" numeric_value=-0.211

Ask: Quick one: 3' UTR reporter interaction score of AAAAUGGUUCCCUUUAGAGUGUU ?
Result: 0.195

Ask: Quick one: 3' UTR reporter interaction score of ACCAUCGACCGUUGAUUGUACC ?
Result: 0.598

Ask: Quick one: 3' UTR reporter interaction score of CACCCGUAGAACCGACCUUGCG ?
Result: -0.0242

----------
- Test system: EZH2
- procedure-summary: 3' UTR reporter interaction score (median-centred robust z-score of log2 firefly/Renilla activity); higher = less repression of the 3' UTR reporter
- test-conditions: HEK293T; 48 h
3' UTR reporter interaction score reference
Give a plain numeric answer without units written out.

Ask: Quick one: 3' UTR reporter interaction score of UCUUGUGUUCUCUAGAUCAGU ?
Result: 0.661

Ask: Quick one: 3' UTR reporter interaction score of ACUGGGGGCUUUCGGGCUCUGCGU ?
Result: -0.722

Ask: Quick one: 3' UTR reporter interaction score of AUCACAUUGCCAGGGAUUUCC ?
Result: 0.281

Ask: Quick one: 3' UTR reporter interaction score of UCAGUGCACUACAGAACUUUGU ?
Result: -0.364

Ask: Quick one: 3' UTR reporter interaction score of UGAGAUGAAGCACUGUAGCUCA ?
Result: -0.134

Ask: Quick one: 3' UTR reporter interaction score of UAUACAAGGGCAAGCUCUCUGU ?
Result: -0.739

Ask: Quick one: 3' UTR reporter interaction score of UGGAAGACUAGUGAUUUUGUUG ?
Result: 0.509

Ask: Quick one: 3' UTR reporter interaction score of GAAGUGUGCCGUGGUGUGUCU ?
Result: -0.113

Ask: Quick one: 3' UTR reporter interaction score of AAUAUUAUACAGUCAACCUCU ?
Result: -0.324

Ask: Quick one: 3' UTR reporter interaction score of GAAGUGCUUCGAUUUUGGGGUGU ?
Result: -0.43

Ask: Quick one: 3' UTR reporter interaction score of ACUCCAGCCCCACAGCCUCAGC ?
Result: -0.117

Ask: Quick one: 3' UTR reporter interaction score of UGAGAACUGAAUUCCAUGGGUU ?
Result: 0.673

Ask: Quick one: 3' UTR reporter interaction score of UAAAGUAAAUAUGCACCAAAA ?
Result: 0.367

Ask: Quick one: 3' UTR reporter interaction score of AUCCUUGCUAUCUGGGUGCUA ?
Result: -0.755

Ask: Quick one: 3' UTR reporter interaction score of UGGAAUGUAAAGAAGUAUGUA ?
Result: -0.314

----------
- Tested on: FBXW7
- procedure-summary: 3' UTR reporter interaction score (median-centred robust z-score of log2 firefly/Renilla activity); higher = less repression of the 3' UTR reporter
- test-conditions: HEK293T; 48 h
measured-parameter: 3' UTR reporter interaction score
Give a plain numeric answer without units written out.

Ask: Quick one: 3' UTR reporter interaction score of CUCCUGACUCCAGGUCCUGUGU ?
Result: -0.332

Ask: Quick one: 3' UTR reporter interaction score of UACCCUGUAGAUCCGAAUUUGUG ?
Result: -0.445

Ask: Quick one: 3' UTR reporter interaction score of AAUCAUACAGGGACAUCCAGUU ?
Result: 0.98

Ask: Quick one: 3' UTR reporter interaction score of UGCUUCCUUUCAGAGGGU ?
Result: 0.46
